From: paper PMC3235725

- test system: BMP(wt), heme domain of P450BM-3 (Priestia megaterium)
- Sequence (P14779 2-472): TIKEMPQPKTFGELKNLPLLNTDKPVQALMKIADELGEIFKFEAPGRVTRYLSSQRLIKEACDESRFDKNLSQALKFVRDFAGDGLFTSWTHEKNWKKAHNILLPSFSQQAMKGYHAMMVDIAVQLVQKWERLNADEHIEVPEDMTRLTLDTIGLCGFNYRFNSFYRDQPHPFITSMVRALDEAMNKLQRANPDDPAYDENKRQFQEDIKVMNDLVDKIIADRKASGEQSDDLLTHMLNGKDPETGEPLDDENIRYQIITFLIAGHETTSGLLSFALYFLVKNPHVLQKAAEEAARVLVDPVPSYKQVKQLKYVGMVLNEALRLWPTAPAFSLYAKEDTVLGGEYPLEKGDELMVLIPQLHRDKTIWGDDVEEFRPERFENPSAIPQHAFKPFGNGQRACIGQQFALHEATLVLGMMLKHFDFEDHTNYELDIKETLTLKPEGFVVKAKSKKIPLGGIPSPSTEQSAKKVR
assay readout: Kd (nM)

compound	assay readout	unit spec	assay result
CCCCCCCCCCCCCCCC(=O)O [Palmitate, palmitic acid]	Kd	nM	1300

---

- test system: BM-3(A328V), P450BM-3(A328V) (Priestia megaterium, UniProt P14779, A329V)
- Sequence (P14779 whole entry A329V): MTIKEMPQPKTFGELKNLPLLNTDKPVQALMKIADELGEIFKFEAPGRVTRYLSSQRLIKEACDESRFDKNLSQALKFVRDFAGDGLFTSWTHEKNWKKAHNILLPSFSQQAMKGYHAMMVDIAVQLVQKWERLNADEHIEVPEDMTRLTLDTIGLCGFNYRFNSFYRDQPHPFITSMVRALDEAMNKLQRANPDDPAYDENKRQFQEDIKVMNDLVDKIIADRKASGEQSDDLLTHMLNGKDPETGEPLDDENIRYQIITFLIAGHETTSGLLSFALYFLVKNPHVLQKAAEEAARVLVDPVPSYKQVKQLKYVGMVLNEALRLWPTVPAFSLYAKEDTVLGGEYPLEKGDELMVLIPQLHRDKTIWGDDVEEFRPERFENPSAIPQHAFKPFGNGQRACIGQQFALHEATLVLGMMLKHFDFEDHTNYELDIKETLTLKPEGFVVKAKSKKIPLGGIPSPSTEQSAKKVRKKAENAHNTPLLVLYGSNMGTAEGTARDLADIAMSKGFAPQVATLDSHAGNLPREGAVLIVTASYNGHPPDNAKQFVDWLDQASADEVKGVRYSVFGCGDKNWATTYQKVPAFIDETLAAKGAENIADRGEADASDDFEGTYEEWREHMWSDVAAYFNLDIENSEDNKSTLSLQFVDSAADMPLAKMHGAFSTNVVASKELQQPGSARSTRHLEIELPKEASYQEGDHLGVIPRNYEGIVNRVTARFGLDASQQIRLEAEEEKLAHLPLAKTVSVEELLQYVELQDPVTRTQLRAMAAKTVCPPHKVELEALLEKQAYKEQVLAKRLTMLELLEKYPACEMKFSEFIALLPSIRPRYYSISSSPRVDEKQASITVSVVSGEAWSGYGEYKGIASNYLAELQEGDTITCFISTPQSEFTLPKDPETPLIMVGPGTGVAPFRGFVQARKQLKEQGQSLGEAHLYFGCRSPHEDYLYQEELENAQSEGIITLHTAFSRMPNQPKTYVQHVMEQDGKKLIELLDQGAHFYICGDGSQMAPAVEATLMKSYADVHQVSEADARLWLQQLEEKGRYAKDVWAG
- method description: Steady-state turnover, products quantified by GC-MS, A328V holoenzyme
- Format: biochemical, Bacillus megaterium
- experimental context: 50 nM enzyme, 250 μM substrate
// NB: equality with 7 counts as rule not met; only Fold Enhancement of turnover (rate A328V divided by rate wild type) strictly below is rule met

compound	test system	group
CCCCCCCCCCCCCCCC(=O)O [Palmitate, palmitic acid]	BM-3(A328V), P450BM-3(A328V) (Priestia megaterium, UniProt P14779, A329V)	rule met
CCCCCCCCCCCCCCCC(=O)N[C@@H](CC(C)C)C(=O)O	BM-3(A328V), P450BM-3(A328V) (Priestia megaterium, UniProt P14779, A329V)	rule met
CCCCCCCCCCCCCCCC(=O)NCC(=O)O	BM-3(A328V), P450BM-3(A328V) (Priestia megaterium, UniProt P14779, A329V)	rule met
CCCCCCCCCCCCCCCC(=O)N[C@@H](CCC(=O)O)C(=O)O [PalmGlu, N-palmitoyl-L-glutamate]	BM-3(A328V), P450BM-3(A328V) (Priestia megaterium, UniProt P14779, A329V)	rule not met
CCCCCCCCCCCCCCCC(=O)N[C@@H](CCSC)C(=O)O	BM-3(A328V), P450BM-3(A328V) (Priestia megaterium, UniProt P14779, A329V)	rule met
CCCCCCCCCCCCCCCC(=O)N[C@@H](CCC(N)=O)C(=O)O	BM-3(A328V), P450BM-3(A328V) (Priestia megaterium, UniProt P14779, A329V)	rule not met

---

- test system: BM-3(A328V), P450BM-3(A328V) (Priestia megaterium, UniProt P14779, A329V)
- method description: Steady-state turnover, products quantified by GC-MS, A328V holoenzyme
- Assay type: biochemical, Bacillus megaterium
- experimental context: 50 nM enzyme, 250 μM substrate, 50 mM KPi pH 7.4, 25°C, GC-MS

compound	BM-3(A328V) turnover rate [μmol/min/μmol]
CCCCCCCCCCCCCCCC(=O)NCC(=O)O	5500
CCCCCCCCCCCCCCCC(=O)O [Palmitate, palmitic acid]	3355
CCCCCCCCCCCCCCCC(=O)N[C@@H](CC(C)C)C(=O)O	3900
CCCCCCCCCCCCCCCC(=O)N[C@@H](CCSC)C(=O)O	4400
CCCCCCCCCCCCCCCC(=O)N[C@@H](CCC(N)=O)C(=O)O	4500
CCCCCCCCCCCCCCCC(=O)N[C@@H](CCC(=O)O)C(=O)O [PalmGlu, N-palmitoyl-L-glutamate]	3960
